# target: recombinant human NF-kappaB-inducing kinase (NIK/MAP3K14) (Homo sapiens (Human))
# Sequence (Q99558 whole entry): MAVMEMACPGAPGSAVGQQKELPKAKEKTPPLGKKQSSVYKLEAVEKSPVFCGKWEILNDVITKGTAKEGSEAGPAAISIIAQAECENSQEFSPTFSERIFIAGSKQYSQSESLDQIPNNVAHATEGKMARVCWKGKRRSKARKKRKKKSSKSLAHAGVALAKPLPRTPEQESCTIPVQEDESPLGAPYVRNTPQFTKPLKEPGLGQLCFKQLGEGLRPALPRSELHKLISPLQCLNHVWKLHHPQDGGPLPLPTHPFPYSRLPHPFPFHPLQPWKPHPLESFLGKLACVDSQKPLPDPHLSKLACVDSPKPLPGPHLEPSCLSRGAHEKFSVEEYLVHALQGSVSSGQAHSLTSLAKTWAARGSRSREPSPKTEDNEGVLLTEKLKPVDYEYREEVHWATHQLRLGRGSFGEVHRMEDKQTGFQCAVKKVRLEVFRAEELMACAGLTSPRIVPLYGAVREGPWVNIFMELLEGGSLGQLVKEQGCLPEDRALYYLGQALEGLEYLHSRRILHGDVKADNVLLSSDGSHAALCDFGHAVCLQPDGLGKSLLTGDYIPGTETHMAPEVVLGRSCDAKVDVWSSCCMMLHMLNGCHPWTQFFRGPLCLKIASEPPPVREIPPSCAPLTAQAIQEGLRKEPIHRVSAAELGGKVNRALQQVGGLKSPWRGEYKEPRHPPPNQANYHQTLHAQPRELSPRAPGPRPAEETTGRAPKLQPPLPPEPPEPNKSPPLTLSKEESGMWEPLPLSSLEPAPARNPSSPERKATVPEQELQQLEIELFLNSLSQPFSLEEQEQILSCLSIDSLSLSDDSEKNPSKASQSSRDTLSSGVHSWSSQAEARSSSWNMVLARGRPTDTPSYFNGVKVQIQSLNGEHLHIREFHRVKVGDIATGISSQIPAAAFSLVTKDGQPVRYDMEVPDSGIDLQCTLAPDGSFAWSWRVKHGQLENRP
# procedureDetails: Inhibition of auto-phosphorylation of recombinant human NIK/MAP3K14 activity (AlphaScreen)
# Type: biochemical
# appliedConditions: averaged values over all measurements on all batches
Returns: string. Value is class 1 if measured IC50 is below 7 nM, and class 0 if it is greater than or equal to it.

Solved cases below.
{"compound": "CC(C)c1nn(CC(F)F)cc1Nc1nccc(-c2cc(C#N)c3c(c2)[C@@](C)(CO)CN3)n1", "assignedClass": "class 1"}
{"compound": "Cn1nc(Nc2nccc(-c3cc(C#N)c4c(c3)C(C)(CO)CN4)n2)cc1C1(C)COC1 (stereo not drawn)", "assignedClass": "class 0"}
{"compound": "COCCc1nn(CC(F)F)cc1Nc1nccc(-c2cc(C#N)c3c(c2)[C@@](C)(CO)CN3)n1", "assignedClass": "class 1"}

Query: API: query returns whether the compound falls strictly under 7 nM in IC50. Query: CNC(=O)c1c(Nc2nccc(-c3cc(C#N)c4c(c3)[C@@](C)(CO)CN4)n2)cnn1C
Reply: class 0

Query: API: query returns whether the compound falls strictly under 7 nM in IC50. Query: Cc1cc(Nc2nccc(-c3cc(C#N)c4c(c3)[C@@](C)(CO)CN4)n2)n(CC2CCN(C)C(=O)C2)n1 (mixture of isomers)
Reply: class 1

Query: API: query returns whether the compound falls strictly under 7 nM in IC50. Query: CNC(=O)c1cc(Nc2nccc(-c3cc(C#N)c4c(c3)[C@@](C)(CO)CN4)n2)nn1C1CCCC1
Reply: class 1

Query: API: query returns whether the compound falls strictly under 7 nM in IC50. Query: COCCN1CCC(Cn2nc(C)cc2Nc2nccc(-c3cc(C#N)c4c(c3)[C@@](C)(CO)CN4)n2)CC1
Reply: class 0

Query: API: query returns whether the compound falls strictly under 7 nM in IC50. Query: CC(C)n1nccc1Nc1nccc(-c2cc(C#N)c3c(c2)C(C)(CO)CN3)n1 (stereo not drawn)
Reply: class 0

Query: API: query returns whether the compound falls strictly under 7 nM in IC50. Query: CNC(=O)c1nn(C)cc1Nc1nccc(-c2cc(C#N)c3c(c2)[C@@](C)(CO)CN3)n1
Reply: class 1

Query: API: query returns whether the compound falls strictly under 7 nM in IC50. Query: CC(C)n1ccc(Nc2nccc(-c3cc(C#N)c4c(c3)[C@@](C)(CO)CN4)n2)n1
Reply: class 1

Query: API: query returns whether the compound falls strictly under 7 nM in IC50. Query: Cc1nc(Nc2nccc(-c3cc(C#N)c4c(c3)[C@@](C)(CO)CN4)n2)sc1C(=O)N(C)C
Reply: class 1

Query: API: query returns whether the compound falls strictly under 7 nM in IC50. Query: CC(C)Oc1nn(CC(F)F)cc1Nc1nccc(-c2cc(C#N)c3c(c2)[C@@](C)(CO)CN3)n1
Reply: class 1

###

# target: recombinant human NF-kappaB-inducing kinase (NIK/MAP3K14) (Homo sapiens (Human))
# procedureDetails: Inhibition of auto-phosphorylation of recombinant human NIK/MAP3K14 activity (AlphaScreen)
# Format: biochemical
# appliedConditions: averaged values over all measurements on all batches
reportedProperty: IC50 (nM)
I only need the number, in nM, no unit after it.

{"smiles": "CC(C)CCc1c(Nc2nccc(-c3cc(C#N)c4c(c3)[C@@](C)(CO)CN4)n2)cnn1CCN1CCOCC1", "IC50 [nM]": 3.5}
{"smiles": "Cn1ccc(Nc2nccc(-c3cc(C#N)c4c(c3)[C@@](C)(CN3CCN(C5CC5)CC3)CN4)n2)n1", "IC50 [nM]": 32}
{"smiles": "COCCCn1nc(C)cc1Nc1nccc(-c2cc(C#N)c3c(c2)[C@](C)(CO)CN3)n1", "IC50 [nM]": 11}

Next:
Query: Quick check: IC50 of Cc1cc(Nc2nccc(-c3cc(C#N)c4c(c3)[C@@](C)(CO)CN4)n2)n(CC(=O)N2CCCCC2)n1 ?
Reply: 6.2
